Ref: ChEMBL document CHEMBL3351616

Assay: Cytotoxicity against mouse EAC cells after 48 hrs by LDH release assay
Format: functional, cell-based
Settings: Ehrlich
pIC50: −log10 of the molar value.
Parameter: pIC50. Scope: all listed entries.

>  <smiles_string>
Cc1cc(C(=O)c2ccccc2)cc(C)c1OCC(=O)Nc1nc(-c2ccccc2)cs1

>  <pIC50>
4.63

$$$$
>  <smiles_string>
O=C(COc1ccc(C(=O)c2ccccc2)cc1Br)Nc1nc(-c2ccccc2)cs1

>  <pIC50>
4.33

$$$$
>  <smiles_string>
COc1ccc(-c2csc(NC(=O)COc3ccc(C(=O)c4ccccc4)cc3C)n2)cc1

>  <pIC50>
4.54

$$$$
>  <smiles_string>
Cc1cc(C(=O)c2cccc(Br)c2)ccc1OCC(=O)Nc1nc(-c2ccccc2)cs1

>  <pIC50>
4.59

$$$$
>  <smiles_string>
Cc1cc(C(=O)c2ccccc2C)ccc1OCC(=O)Nc1nc(-c2ccccc2)cs1

>  <pIC50>
4.58

$$$$
>  <smiles_string>
Cc1ccc(C(=O)c2ccc(OCC(=O)Nc3nc(-c4ccccc4)cs3)c(C)c2)cc1

>  <pIC50>
4.52

$$$$

* * *

Test: Cytotoxicity against mouse EAC cells after 48 hrs by LDH release assay
Type: functional, cell-based
Conditions: Ehrlich
metric: IC50 (µM)

>  <smiles_string>
O=c1[nH]cc(F)c(=O)[nH]1

>  <metric>
IC50

>  <unit_tag>
µM

>  <measured_value>
15.4

$$$$
>  <smiles_string>
Cc1cc(C(=O)c2ccc(F)cc2)ccc1OCC(=O)Nc1nc(-c2ccccc2)cs1

>  <metric>
IC50

>  <unit_tag>
µM

>  <measured_value>
38.6

$$$$
>  <smiles_string>
COc1ccc(-c2csc(NC(=O)COc3ccc(C(=O)c4cccc(F)c4)cc3C)n2)cc1

>  <metric>
IC50

>  <unit_tag>
µM

>  <measured_value>
30.9

$$$$
>  <smiles_string>
COc1ccc(-c2csc(NC(=O)COc3ccc(C(=O)c4cccc(Br)c4)cc3C)n2)cc1

>  <metric>
IC50

>  <unit_tag>
µM

>  <measured_value>
40.6

$$$$
>  <smiles_string>
COc1ccc(-c2csc(NC(=O)COc3ccc(C(=O)c4ccc(C)cc4)cc3C)n2)cc1

>  <metric>
IC50

>  <unit_tag>
µM

>  <measured_value>
20.9

$$$$
>  <smiles_string>
Cc1cc(C(=O)c2ccccc2)ccc1OCC(=O)Nc1nc(-c2ccccc2)cs1

>  <metric>
IC50

>  <unit_tag>
µM

>  <measured_value>
24.5

$$$$
>  <smiles_string>
COc1ccc(-c2csc(NC(=O)COc3c(C)cc(C(=O)c4ccccc4)cc3C)n2)cc1

>  <metric>
IC50

>  <unit_tag>
µM

>  <measured_value>
41.5

$$$$
>  <smiles_string>
Cc1cc(C(=O)c2ccccc2F)ccc1OCC(=O)Nc1nc(-c2ccccc2)cs1

>  <metric>
IC50

>  <unit_tag>
µM

>  <measured_value>
16.9

$$$$
>  <smiles_string>
COc1ccc(-c2csc(NC(=O)COc3ccc(C(=O)c4ccc(F)cc4)cc3C)n2)cc1

>  <metric>
IC50

>  <unit_tag>
µM

>  <measured_value>
5.8

$$$$
